This collection of values is drawn from PubChem BioAssay AID1745844.

System: rodent lifetime carcinogenesis bioassay, tumor incidence TD50
Experiment Notes: carcinogenic potency in animals, long-term in vivo studies, CPDB compilation (AID 1745844)
Test Settings: mouse; strain (C57BL/6 x BALB/c)F1; females; in feed; site: cervix; lesion: squamous-cell carcinoma; dosed 148 weeks; study length 161 weeks
Reported Metric: TD50

### Prompt Return the recorded TD50 value; entry: "CC/C(=C(/CC)c1ccc(O)cc1)c1ccc(O)cc1"
### Response 1.98 mg/kg/day

* * *

Test system: rodent lifetime carcinogenesis bioassay, tumor incidence TD50
Experiment Notes: carcinogenic potency in animals, long-term in vivo studies, CPDB compilation (AID 1745844)
Test Settings: rat; strain Charles River CD1; females; in feed; site: kidney/pelvis; lesion: transitional-cell papilloma; dosed 104 weeks; study length 104 weeks
Reported Metric: TD50 (mg/kg/day)
# value in mg/kg/day; strip the unit string

### Prompt Tell us which TD50 value is on record for "CCOP(=O)=O.CCOP(=O)=O.CCOP(=O)=O.[Al+3]"
### Response 80400

* * *

System: rodent lifetime carcinogenesis bioassay, tumor incidence TD50
Experiment Notes: carcinogenic potency in animals, long-term in vivo studies, CPDB compilation (AID 1745844)
Test Settings: mouse; strain B6C3F1; females; inhaled; site: forestomach; lesion: squamous-cell carcinoma + squamous-cell papilloma; dosed 83 weeks; study length 104 weeks
Reported Metric: TD50

### Prompt # return TD50 for "C=CC=C" , test system: rodent lifetime carcinogenesis bioassay, tumor incidence TD50
### Response 83.9 mg/kg/day

* * *

Tested on: rodent lifetime carcinogenesis bioassay, tumor incidence TD50
Experiment Notes: carcinogenic potency in animals, long-term in vivo studies, CPDB compilation (AID 1745844)
Test Settings: mouse; strain B6C3F1; males; in feed; site: thyroid gland; lesion: follicular-cell adenoma; dosed 78 weeks; study length 78 weeks
Reported Metric: TD50

### Prompt Read off the recorded TD50 for "Cc1cc(C)nc(NS(=O)(=O)c2ccc(N)cc2)n1"
### Response 3370 mg/kg/day

* * *

System: rodent lifetime carcinogenesis bioassay, tumor incidence TD50
Experiment Notes: carcinogenic potency in animals, long-term in vivo studies, CPDB compilation (AID 1745844)
Test Settings: rat; strain Charles River CD (Sprague-Dawley); females; inhaled; site: liver; lesion: hemangiosarcoma; dosed 93 weeks; study length 103 weeks
Reported Metric: TD50

### Prompt Give me measured TD50, please, for this compound: "C=CF"
### Response 16.6 mg/kg/day

* * *

System: rodent lifetime carcinogenesis bioassay, tumor incidence TD50
Experiment Notes: carcinogenic potency in animals, long-term in vivo studies, CPDB compilation (AID 1745844)
Test Settings: rat; strain Fischer 344; males; by gavage; site: pituitary gland; lesion: adenoma, NOS; dosed 98 weeks; study length 104 weeks
Reported Metric: TD50 (mg/kg/day)
Write the number in mg/kg/day without appending the unit.

### Prompt Give me measured TD50, please, for this molecule: c1cc(OCC2CO2)cc(OCC2CO2)c1 (stereo unspecified)
### Response 12.2

* * *

Tested on: rodent lifetime carcinogenesis bioassay, tumor incidence TD50
Experiment Notes: carcinogenic potency in animals, long-term in vivo studies, CPDB compilation (AID 1745844)
Test Settings: rat; strain Fischer 344; males; by gavage; site: liver; lesion: hepatocellular carcinoma; dosed 35 weeks; study length 120 weeks
Reported Metric: TD50

### Prompt Read off the recorded TD50 for CC(O)CN(N=O)C(=O)NCCCl (configuration not stated)
### Response 2.71 mg/kg/day

### Prompt // fetch TD50 given entry "O=NN(CCO)C(=O)NCCCl"
### Response 0.233 mg/kg/day

* * *

Test system: rodent lifetime carcinogenesis bioassay, tumor incidence TD50
Experiment Notes: carcinogenic potency in animals, long-term in vivo studies, CPDB compilation (AID 1745844)
Test Settings: mouse; strain B6C3F1; males; inhaled; site: all sites + liver; lesion: histiocytic sarcoma + hemangioma + hemangiosarcoma + hepatocellular adenoma + hepatocellular carcinoma; dosed 95 weeks; study length 95 weeks
Reported Metric: TD50 (mg/kg/day)
Give the value in mg/kg/day but do not write mg/kg/day after it.

### Prompt Entry "FC(F)=C(F)F" needs its TD50 filled in; supply it.
### Response 71.6

* * *

System: rodent lifetime carcinogenesis bioassay, tumor incidence TD50
Experiment Notes: carcinogenic potency in animals, long-term in vivo studies, CPDB compilation (AID 1745844)
Test Settings: mouse; strain B6C3F1; females; in feed; site: liver; lesion: hepatocellular adenoma + hepatocellular carcinoma + neoplastic nodule; dosed 94 weeks; study length 94 weeks
Reported Metric: TD50 (mg/kg/day)
Give just the numeric value; mg/kg/day need not be written.

### Prompt Specify TD50 for "NC(=S)NNC(N)=S" and stop.
### Response 5670

* * *

Test system: rodent lifetime carcinogenesis bioassay, tumor incidence TD50
Experiment Notes: carcinogenic potency in animals, long-term in vivo studies, CPDB compilation (AID 1745844)
Test Settings: mouse; strain AP Alderly Park; females; several routes; site: liver; lesion: hepatocellular adenoma; dosed 78 weeks; study length 78 weeks
Reported Metric: TD50 (mg/kg/day)
Your answer should be a plain number; it is taken to be in mg/kg/day.

### Prompt Write down TD50 measured for item "COC(=O)C(C)(C)Oc1ccc(-c2ccc(Cl)cc2)cc1"
### Response 48.5

* * *

Tested on: rodent lifetime carcinogenesis bioassay, tumor incidence TD50
Experiment Notes: carcinogenic potency in animals, long-term in vivo studies, CPDB compilation (AID 1745844)
Test Settings: rat; strain Wistar; females; in feed; site: forestomach; lesion: squamous-cell carcinoma; dosed 96 weeks; study length 101 weeks
Reported Metric: TD50

### Prompt Provide only the value of recorded TD50 for O=P(O)(OCC(Br)CBr)OCC(Br)CBr (stereo unspecified)
### Response 301 mg/kg/day

* * *

Tested on: rodent lifetime carcinogenesis bioassay, tumor incidence TD50
Experiment Notes: carcinogenic potency in animals, long-term in vivo studies, CPDB compilation (AID 1745844)
Test Settings: mouse; strain CDF1; females; in feed; site: lung; lesion: adenoma; dosed 97 weeks; study length 97 weeks
Reported Metric: TD50 (mg/kg/day)
Expressed in mg/kg/day, but write only the number.

### Prompt Supply recorded TD50 for "Nc1ccc2c(n1)[nH]c1ccccc12" here.
### Response 795

* * *

Tested on: rodent lifetime carcinogenesis bioassay, tumor incidence TD50
Experiment Notes: carcinogenic potency in animals, long-term in vivo studies, CPDB compilation (AID 1745844)
Test Settings: rat; strain Wistar; males; inhaled; site: liver; lesion: angiosarcoma; dosed 52 weeks; study length 52 weeks
Reported Metric: TD50

### Prompt Return value of TD50 for input "C=CCl" , no commentary.
### Response 330 mg/kg/day

* * *

Tested on: rodent lifetime carcinogenesis bioassay, tumor incidence TD50
Experiment Notes: carcinogenic potency in animals, long-term in vivo studies, CPDB compilation (AID 1745844)
Test Settings: monkey; strain Cynomolgus [Macaca fascicularis]; both sexes; in feed; site: upper gastrointestinal tract; lesion: squamous-cell carcinoma; dosed 928 weeks; study length 1135 weeks
Reported Metric: TD50

### Prompt Provide measured TD50 on rodent lifetime carcinogenesis bioassay, tumor incidence TD50 for "CN(N=O)C(N)=O" please.
### Response 4.52 mg/kg/day

* * *

Tested on: rodent lifetime carcinogenesis bioassay, tumor incidence TD50
Experiment Notes: carcinogenic potency in animals, long-term in vivo studies, CPDB compilation (AID 1745844)
Test Settings: mouse; strain B6C3F1; males; in feed; site: liver; lesion: hepatocellular carcinoma; dosed 100 weeks; study length 100 weeks
Reported Metric: TD50 (mg/kg/day)
Just the number in mg/kg/day, nothing appended.

### Prompt Please report TD50 with rodent lifetime carcinogenesis bioassay, tumor incidence TD50 for item "Cn1cnc([N+](=O)[O-])c1Sc1ncnc2nc[nH]c12" .
### Response 55.9

* * *

System: rodent lifetime carcinogenesis bioassay, tumor incidence TD50
Experiment Notes: carcinogenic potency in animals, long-term in vivo studies, CPDB compilation (AID 1745844)
Test Settings: mouse; strain ICR/Jcl; males; in feed; site: liver; lesion: hepatoma; dosed 65 weeks; study length 65 weeks
Reported Metric: TD50

### Prompt Param request: TD50 | system rodent lifetime carcinogenesis bioassay, tumor incidence TD50 | item "Nc1ccc(-c2ccc(N)c(O)c2)cc1O"
### Response 353 mg/kg/day

### Prompt State measured TD50 of the compound "COc1cc(-c2ccc(N)c(OC)c2)ccc1N" with rodent lifetime carcinogenesis bioassay, tumor incidence TD50.
### Response 73.8 mg/kg/day

* * *

Tested on: rodent lifetime carcinogenesis bioassay, tumor incidence TD50
Experiment Notes: carcinogenic potency in animals, long-term in vivo studies, CPDB compilation (AID 1745844)
Test Settings: rat; strain Sprague-Dawley; females; in feed; site: external auditory canal; lesion: squamous-cell carcinoma; dosed 75 weeks; study length 75 weeks
Reported Metric: TD50

### Prompt For "COc1cc2c(cc1N)oc1ccccc12" , write its TD50.
### Response 61.9 mg/kg/day

* * *

Test system: rodent lifetime carcinogenesis bioassay, tumor incidence TD50
Experiment Notes: carcinogenic potency in animals, long-term in vivo studies, CPDB compilation (AID 1745844)
Test Settings: rat; strain Wistar; males; in drinking water; site: liver; lesion: several types; types named in the paper; dosed 157 weeks; study length 157 weeks
Reported Metric: TD50

### Prompt Fill in: TD50 on rodent lifetime carcinogenesis bioassay, tumor incidence TD50, entry "NN"
### Response 43.7 mg/kg/day
